Here, compounds appear alongside IC50 reported for Tyrosine-protein kinase JAK2 (Homo sapiens, UniProt O60674) in the literature.

Example entries begin here.
>  <compound>
CN1CCN(C(=O)c2ccc3c(c2)[nH]c2c(C(N)=O)cc(-c4ccc(Cl)nc4)cc23)CC1

>  <IC50>
0.007 µM

$$$$
>  <compound>
CCn1c(C(=O)N(C2CC2)C2CC2)cc2c3c(ncn3C)c(Nc3nc(C)c(C(=O)N4CCS(=O)(=O)CC4)s3)nc21

>  <IC50>
0.000733 µM

$$$$

Consider the additional compound presented here.
Query string: Observed IC50 on Tyrosine-protein kinase JAK2 (Homo sapiens, UniProt O60674) for CCS(=O)(=O)N1CC(CC#N)(n2cc(-c3nc(Nc4ccnnc4)nc4ccsc34)cn2)C1 , please.
Result string: 0.5 to 1 µM
